- Tested On: Cysteinyl leukotriene receptor 1 (Homo sapiens)
- Sequence (Q9Y271 whole entry): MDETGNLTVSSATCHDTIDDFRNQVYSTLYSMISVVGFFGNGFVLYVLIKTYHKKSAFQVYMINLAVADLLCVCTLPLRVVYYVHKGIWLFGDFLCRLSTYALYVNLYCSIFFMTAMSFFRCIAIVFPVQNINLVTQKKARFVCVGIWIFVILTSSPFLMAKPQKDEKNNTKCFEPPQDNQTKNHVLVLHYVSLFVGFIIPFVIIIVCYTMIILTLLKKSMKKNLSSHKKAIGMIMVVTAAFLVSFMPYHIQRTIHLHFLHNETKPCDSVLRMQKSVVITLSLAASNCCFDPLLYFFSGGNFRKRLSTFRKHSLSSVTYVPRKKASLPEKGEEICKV
- Experiment Summary: Antagonist activity at human CysLT1 receptor expressed in Syrian hamster AV12-664 cells assessed as decrease in LTD4-induced intracellular calcium level pretreated followed by LTD4 addition by fluo-3 dye based FLIPR assay
pIC50: −log10 of the molar value.
Endpoint Label: pIC50

Some compounds with known pIC50 results, for comparison:
>>> test_result("CC(=O)c1ccc(OCc2ccc(Oc3cc(-c4nn[nH]n4)ccn3)cc2)c(C)c1O")
7.62
>>> test_result("CC(=O)c1ccc(OCc2cccc(Oc3ccc(-c4nn[nH]n4)cn3)c2)c(F)c1O")
5.82
>>> test_result("CC(=O)c1ccc(OCc2cccc(Oc3cc(-c4nn[nH]n4)ccn3)c2)c(Cl)c1O")
6.47

(P) CCCc1c(OCc2ccc(Oc3cc(-c4nn[nH]n4)ccn3)cc2)ccc(C(C)=O)c1O
(Q) CCCc1c(OCc2cccc(Oc3cc(C(=O)O)ccn3)c2)ccc(C(C)=O)c1O
// pick larger pIC50 from pair: P vs Q Please identify the chosen entry by its label.
Q
(Q: 7.13, P: 6.70)

###

- Experiment Summary: Half life in rat at 1 mg/kg, iv
- Format: ADME, organism-based
- Conditions: in vivo
Endpoint Label: half-life (h)
Reply numerically in h, unit not repeated.

Entry CC(=O)c1ccc(OCc2ccc(Oc3cc(-c4nn[nH]n4)ccn3)cc2)c(C)c1O has what half-life?
2

###

- Tested On: UniProt Q14416
- Experiment Summary: Positive allosteric modulation of recombinant human mGlu2 receptor expressed in hamster AV12 cells expressing EAAT1 assessed as potentiation of glutamate-induced intracellular calcium level measured after 24 to 48 hrs by FLIPR assay
- Assay type: functional, cell-based
- Sequence (Q14416 whole entry): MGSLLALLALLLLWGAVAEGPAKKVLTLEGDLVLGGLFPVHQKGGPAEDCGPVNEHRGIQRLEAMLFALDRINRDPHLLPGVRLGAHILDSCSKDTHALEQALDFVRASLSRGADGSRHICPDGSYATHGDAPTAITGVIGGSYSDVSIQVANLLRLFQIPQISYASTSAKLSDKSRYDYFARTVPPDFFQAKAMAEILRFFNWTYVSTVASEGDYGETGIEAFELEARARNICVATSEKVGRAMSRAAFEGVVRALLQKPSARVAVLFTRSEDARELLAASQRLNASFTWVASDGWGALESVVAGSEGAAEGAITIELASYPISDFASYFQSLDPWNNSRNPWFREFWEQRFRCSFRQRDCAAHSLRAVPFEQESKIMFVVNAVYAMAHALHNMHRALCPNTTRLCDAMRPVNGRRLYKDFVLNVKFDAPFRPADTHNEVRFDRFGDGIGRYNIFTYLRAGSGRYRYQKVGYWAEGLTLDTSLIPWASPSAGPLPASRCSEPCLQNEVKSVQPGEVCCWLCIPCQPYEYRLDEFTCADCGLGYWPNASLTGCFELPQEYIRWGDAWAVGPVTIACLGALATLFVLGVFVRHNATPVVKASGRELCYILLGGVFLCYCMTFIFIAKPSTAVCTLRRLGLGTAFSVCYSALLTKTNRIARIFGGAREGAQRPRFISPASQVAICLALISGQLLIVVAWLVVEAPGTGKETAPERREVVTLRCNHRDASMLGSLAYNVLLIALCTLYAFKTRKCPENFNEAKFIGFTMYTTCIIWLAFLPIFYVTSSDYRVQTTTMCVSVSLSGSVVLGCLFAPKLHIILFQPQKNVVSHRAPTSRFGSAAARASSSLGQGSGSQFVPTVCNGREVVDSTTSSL
pEC50: −log10 of the molar value.
Endpoint Label: pEC50

>>> test_result("CCCc1c(OCc2ccc(Oc3ccc(C(=O)O)cn3)cc2)ccc(C(C)=O)c1O")
5.84

(P) CCCc1c(OCc2cccc(Oc3ncccc3-c3nn[nH]n3)c2)ccc(C(C)=O)c1O
(Q) CC(=O)c1ccc(OCc2cccc(Oc3ccc(-c4nn[nH]n4)cn3)c2)c(Cl)c1O
(R) CCCc1c(OCc2ccc(Oc3cc(-c4nn[nH]n4)ccn3)cc2)ccc(C(C)=O)c1O
(S) CC(=O)c1ccc(OCc2cccc(Oc3ccc(-c4nn[nH]n4)cn3)c2)c(F)c1O
(T) CC(=O)c1ccc(OCc2cccc(Oc3ccc(-c4nn[nH]n4)cn3)c2)c(C(F)(F)F)c1O
Arrange these 5 molecules in increasing order of pEC50. Write the labels out in the order the request specifies.
S, R, P, Q, T
(S: 5.97, R: 6.33, P: 6.64, Q: 7.41, T: 7.75)

(a) CCCc1c(OCc2cccc(Oc3cc(C(=O)O)ccn3)c2)ccc(C(C)=O)c1O
(b) CC(=O)c1ccc(OCc2cccc(Oc3cc(-c4nn[nH]n4)ccn3)c2)c(Cl)c1O
(c) CCCc1c(OCc2ccc(Oc3ccc(-c4nn[nH]n4)cn3)cc2)ccc(C(C)=O)c1O
List items by pEC50 in falling order. A complete answer lists every label in the requested sequence.
b, a, c

(I) CCCc1c(OCc2ccc(Oc3ncccc3-c3nn[nH]n3)cc2)ccc(C(C)=O)c1O
(II) CCCc1c(OCc2ccc(Oc3cccc(-c4nn[nH]n4)c3)nc2)ccc(C(C)=O)c1O
Kindly identify the item with the lower pEC50 figure among these two: I and II Record your answer as the label of the chosen record.
II
(II: 6.25, I: 6.51)

(A) CCCc1c(OCc2cccc(Oc3ccc(-c4nn[nH]n4)cn3)c2)ccc(C(C)=O)c1O
(B) CCCc1c(OCc2cccc(Oc3cc(-c4nn[nH]n4)ccn3)c2)ccc(C(C)=O)c1O
Form: Entry with minimum pEC50 (choose one): A / B # respond with the chosen item's label
A
(A: 6.50, B: 6.96)

###

- Experiment Summary: Clearance in rat at 1 mg/kg, iv
- Format: ADME, organism-based
- Conditions: in vivo
Endpoint Label: clearance (mL/min/kg)
Provide only the numeric value, understood in mL/min/kg.

Name the recorded clearance for CC(=O)c1ccc(OCc2ccc(Oc3cc(-c4nn[nH]n4)ccn3)cc2)c(C)c1O .
11

###

- Tested On: UniProtKB Q14416
- Experiment Summary: Positive allosteric modulation of recombinant human mGlu2 receptor expressed in hamster AV12 cells expressing EAAT1 assessed as potentiation of glutamate-induced intracellular calcium level measured after 24 to 48 hrs by FLIPR assay relative to glutamate
- Assay type: functional, cell-based
- Sequence (Q14416 19-872 limits assumed): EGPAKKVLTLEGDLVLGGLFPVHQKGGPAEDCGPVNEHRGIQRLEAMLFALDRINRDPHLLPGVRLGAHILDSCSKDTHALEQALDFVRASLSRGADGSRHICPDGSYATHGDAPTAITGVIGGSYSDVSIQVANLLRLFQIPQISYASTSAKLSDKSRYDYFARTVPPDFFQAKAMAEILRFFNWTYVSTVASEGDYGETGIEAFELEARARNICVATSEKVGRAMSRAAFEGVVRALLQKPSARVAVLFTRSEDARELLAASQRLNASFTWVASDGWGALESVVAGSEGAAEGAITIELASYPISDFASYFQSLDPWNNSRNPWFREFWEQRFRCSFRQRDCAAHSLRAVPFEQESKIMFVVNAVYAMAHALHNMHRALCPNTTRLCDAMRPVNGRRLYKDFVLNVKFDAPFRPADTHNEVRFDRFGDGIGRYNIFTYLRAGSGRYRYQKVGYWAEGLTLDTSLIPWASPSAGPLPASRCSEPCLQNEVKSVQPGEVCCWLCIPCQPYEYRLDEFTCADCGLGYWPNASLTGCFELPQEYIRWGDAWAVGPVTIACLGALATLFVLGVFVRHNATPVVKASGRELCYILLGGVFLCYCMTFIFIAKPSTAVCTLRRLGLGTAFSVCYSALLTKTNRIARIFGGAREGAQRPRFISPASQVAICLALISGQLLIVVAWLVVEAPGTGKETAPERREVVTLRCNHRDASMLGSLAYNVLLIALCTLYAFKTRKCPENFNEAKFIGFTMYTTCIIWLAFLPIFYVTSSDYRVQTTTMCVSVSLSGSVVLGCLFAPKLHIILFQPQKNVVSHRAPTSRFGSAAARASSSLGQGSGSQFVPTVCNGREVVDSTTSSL
Endpoint Label: Emax (%)

>>> test_result("CCCc1c(OCc2cccc(Oc3ncccc3-c3nn[nH]n3)c2)ccc(C(C)=O)c1O")
85
>>> test_result("CCCc1c(OCc2cccc(Oc3cc(C(=O)O)ccn3)c2)ccc(C(C)=O)c1O")
91
>>> test_result("CC(=O)c1ccc(OCc2cccc(Oc3ccc(-c4nn[nH]n4)cn3)c2)c(C(F)(F)F)c1O")
85
>>> test_result("CCCc1c(OCc2ccc(Oc3ncccc3-c3nn[nH]n3)cc2)ccc(C(C)=O)c1O")
87
>>> test_result("CCCc1c(OCc2ccc(Oc3ccc(C(=O)O)cn3)cc2)ccc(C(C)=O)c1O")
96
>>> test_result("CC(=O)c1ccc(OCc2ccc(Oc3cc(-c4nn[nH]n4)ccn3)cc2)c(C)c1O")
107
>>> test_result("CCCc1c(OCc2ccc(Oc3ccc(-c4nn[nH]n4)cn3)cc2)ccc(C(C)=O)c1O")
94
>>> test_result("CCCc1c(OCc2ccc(Oc3cccc(-c4nn[nH]n4)c3)nc2)ccc(C(C)=O)c1O")
74
>>> test_result("CC(=O)c1ccc(OCc2cccc(Oc3ccc(-c4nn[nH]n4)cn3)c2)c(Cl)c1O")
90

###

- Tested On: Metabotropic glutamate receptor 2 (Homo sapiens, UniProt Q14416)
- Experiment Summary: Antagonist activity at recombinant human mGlu2 receptor expressed in hamster AV12 cells expressing EAAT1 assessed as inhibition of glutamate-induced increase in intracellular Ca2+ level measured after 24 to 48 hrs by FLIPR assay
- Type: functional, cell-based
pIC50: −log10 of the molar value.
Endpoint Label: pIC50

# get_value(readout='pIC50', item= CC(=O)c1ccc(OCc2ccc(Oc3cc(-c4nn[nH]n4)ccn3)cc2)c(C)c1O )
< 4.90

###

- Experiment Summary: Half life in dog at 0.5 mg/kg, iv
- Type: ADME, organism-based, Canis lupus familiaris
- Conditions: in vivo
Endpoint Label: half-life (h)
Numbers only; they are read as h.

Tell me the measured half-life of CC(=O)c1ccc(OCc2ccc(Oc3cc(-c4nn[nH]n4)ccn3)cc2)c(C)c1O , please.
2

###

Sequence of the target: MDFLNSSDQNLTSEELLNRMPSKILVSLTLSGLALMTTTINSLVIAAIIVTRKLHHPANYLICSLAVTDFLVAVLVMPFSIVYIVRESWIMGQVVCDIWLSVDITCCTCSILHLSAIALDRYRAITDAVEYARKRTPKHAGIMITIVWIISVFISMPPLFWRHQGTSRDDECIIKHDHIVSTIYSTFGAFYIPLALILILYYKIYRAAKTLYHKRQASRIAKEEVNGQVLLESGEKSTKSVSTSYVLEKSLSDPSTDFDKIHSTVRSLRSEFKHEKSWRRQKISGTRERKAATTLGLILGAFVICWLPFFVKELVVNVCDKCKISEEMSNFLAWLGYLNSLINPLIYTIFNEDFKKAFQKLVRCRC
Endpoint Label: Ki

May I ask what Ki has been recorded for CC(=O)c1ccc(OCc2ccc(Oc3cc(-c4nn[nH]n4)ccn3)cc2)c(C)c1O ?
> 2970 nM

###

- Experiment Summary: Clearance in dog at 0.5 mg/kg, iv
- Type: ADME, organism-based, Canis lupus familiaris
- Conditions: in vivo
Endpoint Label: clearance (mL/min/kg)
The reply should be a number in mL/min/kg, with the unit left off.

// clearance lookup, key: CC(=O)c1ccc(OCc2ccc(Oc3cc(-c4nn[nH]n4)ccn3)cc2)c(C)c1O
12

###

- Experiment Summary: Cmax in rat at 1 mg/kg, iv
- Format: ADME, organism-based
- Set-up: dose 1 mg/kg, route intravenous
- Conditions: in vivo
Endpoint Label: Cmax (ng/mL)
Respond numerically; units are ng/mL and should not be typed.

Tell me the measured Cmax of CC(=O)c1ccc(OCc2ccc(Oc3cc(-c4nn[nH]n4)ccn3)cc2)c(C)c1O , please.
2160

###

- Experiment Summary: Volume of distribution in rat at 1 mg/kg, iv
- Assay type: ADME, organism-based
- Conditions: in vivo
Endpoint Label: Vd (L/kg)
Report only the number, with the unit L/kg understood.

So what does the record say about Vd for CC(=O)c1ccc(OCc2ccc(Oc3cc(-c4nn[nH]n4)ccn3)cc2)c(C)c1O ?
2

###

- Experiment Summary: Oral bioavailability in dog at 1 mg/kg
- Assay type: ADME, organism-based, Canis lupus familiaris
- Conditions: in vivo
Endpoint Label: bioavailability (%)
Please respond with the number in % and leave the unit unwritten.

Any idea what bioavailability was measured for CC(=O)c1ccc(OCc2ccc(Oc3cc(-c4nn[nH]n4)ccn3)cc2)c(C)c1O ?
32
